# System: FADD−/− Jurkat cells
# TEST_SUMMARY: Necroptosis inhibition assay, TNF-α-induced necroptosis (CellTiter-Glo 2.0)
# Type: cell-based, human
# CONDITION_DESCRIPTION: compound 1 μM; TNF-α 15 ng/mL
PARAMETER: Necroptosis inhibition assay (Rescue %) 1 μM
Number only, in %; omit the unit.

Before answering, review these 2 worked examples.
{"columns": ["MOLECULE", "UNIT_DESCRIPTOR", "MEASURED_VALUE"],
 "data": [
  ["Nc1ncc(-c2cnn([C@H]3CCN(CCOCCOCCNC(=O)COc4cccc5c4C(=O)N(C4CCC(=O)NC4=O)C5=O)C3)c2)nc1C(=O)OC(C(=O)Nc1ccc(F)cc1)c1ccccc1 (some centres unmarked) [TDH-265]", "%", 19.18],
  ["Nc1ncc(-c2cnn(C3CCN(C(=O)CC4CCN(C(=O)C5CCN(c6ccc7c(c6)C(=O)N(C6CCC(=O)NC6=O)C7=O)CC5)CC4)CC3)c2)nc1C(=O)O[C@@H](C(=O)Nc1ccc(F)cc1)c1ccccc1 (some centres unmarked) [TDH-342]", "%", 28.05]
]}

Memo: Nc1ncc(-c2cnn(C3CCN(CC4CCN(C(=O)C5CN(c6cccc7c6C(=O)N(C6CCC(=O)NC6=O)C7=O)C5)CC4)CC3)c2)nc1C(=O)O[C@@H](C(=O)Nc1ccc(F)cc1)c1ccccc1 (some centres unmarked) [TDH-138] , reported Necroptosis inhibition assay (Rescue %) 1 μM: 70.53

Short answer for Nc1ncc(-c2cnn([C@@H]3CCN(CCOCCOCCNC(=O)CNc4ccc5c(c4)C(=O)N(C4CCC(=O)NC4=O)C5=O)C3)c2)nc1C(=O)OC(C(=O)Nc1ccc(F)cc1)c1ccccc1 (some centres unmarked) [TDH-268] : Necroptosis inhibition assay (Rescue %) 1 μM was 21.45

Field Necroptosis inhibition assay (Rescue %) 1 μM (entry Nc1ncc(-c2cnn(C3CCN(C(=O)C4CCN(c5cccc6c5C(=O)N(C5CCC(=O)NC5=O)C6=O)CC4)CC3)c2)nc1C(=O)OC(C(=O)Nc1ccc(F)cc1)c1ccccc1 (centres unmarked) [TDH-279] ) reads 24.78
